The origin of these recorded values is the EternaBench riboswitch data.

Tested on: MS2 coat protein
EXPERIMENT: apparent Kd, MS2 coat protein; higher = weaker binding; RNA-MaP array
MEASUREMENT_SETUP: ligand present: flavin mononucleotide; designed as: OFF switch for flavin mononucleotide

SEQUENCE_RECORD | apparent Kd / nM
GCUCCGCUAGCAGGAUAUGUAGGGGGAUUAUUGAUUGGGCGUAACAUGAGGAUCACCCAUGUUCCACAGAAGGGCUGGAGAAGA | 68.3
GACGAGAGACAGAAGGCUCGACUGUGGCUACGAGAUCUGAAAACAUGAGGAUCACCCAUGUUUCGAGAGGAUAUGUCGAAUUAU | 397
GCUGUAAAGGAGAAGGUGAAUCGUAAGCUUGGUCAAGGAUAUCCGACUGGACAUGGCUGCAGACAUGAGGAUCACCCAUGUGCG | 113
AAGCCACAUGAGGAUCACCCAUGUGAGGAUAUUCAUCUAGAUCAACAAGACACGGAUAGAAGAAGGCACGGUGG | 29.5
CAUGUCAAAGACAUGAGGAUCACCCAUGUAAUCCAAGACGCAAGAAGGGCGUGUUGAACUAACACGCAGGAUAUUGACCCUGUU | 73.4
UCCUUUAGACAUGAGGAUCACCCAUGUAGCCUCACUGUUCGUAGAAGGACACCGCUGUUCAAGCUGUAGGAUAUACGGAGGAUC | 319
UGAGUAAGCGAGGAUAUUGGGCGCGUACGUGGUCAAGAAGGCGCAACAUGAGGAUCACCCAUGUGCUUCUCUUG | 29.2

----------
System: MS2 coat protein
EXPERIMENT: apparent Kd, MS2 coat protein; higher = weaker binding; RNA-MaP array; FMN 200 µM where present
MEASUREMENT_SETUP: ligand present: flavin mononucleotide; designed as: OFF switch for flavin mononucleotide

SEQUENCE_RECORD | OUTPUT_UNIT | apparent Kd
UUUUUGUGAGGAUAUUAGUAGUAAAUAAAUAAAAUUACUACUGAGAAGGCACAUGAGGAUCACCCAUGUUCCUC | µM | 0.254
UGAGCUUCAGGAUAUAUAUGGCGACCGUGAGGUCGAAGGUUACAUGAGGAUCACCCAUGUAGAAGGGAAGUUCU | µM | 0.187
UCAUAACAUGAGGAUCACCCAUGUCAGGAUAUGAUACUAUGUACUUCGGUACAUAGUAUCAGAAGGGACAUACU | µM | 0.153
AAUGUUGGAGGAUAUACGCGAGUGCUCAGUUGGCCCGGUCGACAUGAGGAUCACCCAUGUAGAAGGCCGACGCU | µM | 0.0169
CACGGUGAUGUAGGAUAUAUGCUGGAAUACAGCAUAGAAGGACAUGAGGAUCACCCAUGUAAAGUGUCUCCAAAUAACACCGUG | µM | 0.077
UAGUAUAAGGGCAUUAAACAUGAGGAUCACCCAUGUACAAUAGAGGAUAUGCAUUUCAGUUUAGAGUAGAAGGUUAGAGAAUAU | µM | 0.0411
ACAAAGUGAGGAUAUGCUUUUAUUUAUUAUUAUUAUUAUUUGCAGAAGGCACAUGAGGAUCACCCAUGUAAGAA | µM | 0.0255
CGCUAAGAGAACUAUUCGAGAAGACAUGAGGAUCACCCAUGUAGAAGGACAACGGAAUAAACGUUGUAGGAUAUACACUUAGCG | µM | 0.00897
